Counter-ions that a name gives are not always drawn.
Please use Condition met for melting point under 100 °C and Condition not met for everything else, ties included.

Worked examples follow.
{"columns": ["Compound", "Group"],
 "data": [
  ["COc1ccc2ncc(F)c(CCCC3(C(=O)O)CCN(CCOc4cc(F)ccc4F)C3)c2c1 (single isomer, unassigned)", "Condition not met"],
  ["COc1ccc2ncc(F)c(CCCC3(C(=O)O)CCN(C/C=C/c4cc(F)c(F)c(F)c4)C3)c2c1 (single isomer, unassigned) [Example 49]", "Condition not met"],
  ["COc1ccc2ncc(F)c(CCCC3(C(=O)O)CCN(CCSc4cccs4)C3)c2c1 (single isomer, unassigned) [Example 18]", "Condition not met"],
  ["COc1ccc2ncc(Cl)c(CCCC3(C(=O)O)CCN(C/C=C/c4cc(F)ccc4F)C3)c2c1 (racemic) (as salt: sodium)", "Condition met"]
]}

Note: attention shifts to another entry.
Just wondering, is melting point of COc1ccc2ncc(F)c(CCCC3(C(=O)O)CCN(C/C=C/c4cc(F)ccc4F)C3)c2c1 (racemic) [Example 1] below 100 °C? Condition met
